Some compounds, each annotated with its measured z-score.
# assay: compound effects on multiple myeloma cell viability – MM1S, calcein-AM fluorescence, 48 h, basal, profiling panel (AID 1165);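 also: viability of MM1S multiple myeloma cells under basal unstimulated conditions; test concentration not given here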
# condition: higher = more signal

Recorded results for 2 compounds are shown here.
C=CC[C@@]1(C(=O)N2CCCCC2)N=C(c2ccc(OCCCO)cc2)O[C@@H]1c1ccccc1N=[N+]=[N-] | -1.23
COCCCNC(=O)[C@@]1(CCS(=O)(=O)c2ccccc2)N=C(c2ccc(OCCCO)cc2)O[C@H]1c1ccccc1N=[N+]=[N-] | 0.0021

Next compound, please.
The compound listed as COCCOC(=O)N1C(=O)[C@@]2(c3cc(C#Cc4ccc(OC)cc4)ccc31)[C@H](c1ccc(O)cc1)N1[C@H](c3ccccc3)[C@H](c3ccccc3)OC(=O)[C@H]1[C@@H]2C(=O)Nc1nc2ccccc2s1 has a reported z-score of -1.55

----------
# assay: compound effects on multiple myeloma cell viability – MM1S, calcein-AM fluorescence, 48 h, basal, profiling panel (AID 1165);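 also: viability of MM1S multiple myeloma cells under basal unstimulated conditions; test concentration not given here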
# condition: higher = more signal
measured endpoint: z-score
Enter a number only.

CC=CC(O)C1C=CC2C(=O)N(C)C(=O)C2N1N(c1ccccc1)c1ccccc1 (stereo not given) | 0.13
CO[C@H]1O[C@H](CO)[C@@H](OC(=O)Nc2ccccc2)[C@@H]2OC(=O)[C@@H](Cc3ccc4ccccc4c3)C/C=C/C[C@H](Cc3ccc4ccccc4c3)C(=O)O[C@@H]12 | -0.268

Field z-score (entry COC(=O)C(CC#Cc1ccc2c(c1)[C@]1(C(=O)N2)[C@H](c2ccccc2OCCO)N2[C@H](c3ccccc3)[C@H](c3ccccc3)OC(=O)[C@H]2[C@@H]1C(=O)O)C(=O)OC ) reads -2.37

z-score for COCCCNC(=O)[C@@]1(Cc2ccccc2CN=[N+]=[N-])N=C(c2ccc(OCCCO)cc2)O[C@H]1c1ccccc1CN=[N+]=[N-] is -2.88

----------
# System: PRMT1 (protein arginine N-methyltransferase 1)
# assay: small molecules binding arginine methyltransferase PRMT1 – biochemical, small-molecule microarray, 635 nm fluorescence, primary screen (AID 1088);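 also: binding of Prmt1 protein to compounds spotted on small-molecule microarray slides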
# condition: higher = more signal
So basically every entry gets a class from its composite z-score, ranges being LOW = under 0.5, MID = from 0.5 up to 1, HIGH = 1 and over

C=C(CCCC)/C(=C/C[C@H](OC(=O)c1ccncc1)c1ccc(OCCO)cc1)c1cc(C(=O)OC)ccc1OC | MID
O=C1OCCC=C[C@H]2OC34C=CCN(c5ccc(Cl)cc5)C(=O)[C@H]3N(CCCO)C(=O)[C@@H]4C12 (stereo not given in full) | LOW
CCCC[C@H]1C[C@@H]1[C@@H]1N(P(=O)(c2ccccc2)c2ccccc2)C[C@@](O)(c2ccccc2)CC12CC2 | MID

QUERY: Could you place CCCCN1CC=CC23O[C@@H]4/C=C\CCCOC(=O)C4[C@H]2C(=O)N(CCCO)[C@@H]3C1=O (stereo not given in full) in its proper category? Many thanks.
RESULT: HIGH

QUERY: Quick check: band for C=CC[C@@]1(C(=O)N2CCCCC2)N=C(c2ccc(OCCCO)cc2)O[C@@H]1c1ccccc1N=[N+]=[N-]
RESULT: HIGH

QUERY: Category lookup for the compound O=C(O)[C@@]1(CCS(=O)(=O)c2ccccc2)N=C(c2ccc(OCCCO)cc2)O[C@H]1c1ccccc1
RESULT: HIGH

QUERY: For the record COc1ccc([Si](C)(C)[C@@H]2[C@@H](CC(=O)N3Cc4ccccc4C[C@H]3CO)O[C@]3(C(=O)N(Cc4cccc(N5CCC5=O)c4)c4ccccc43)[C@H]2C)cc1 , report the class its composite z-score corresponds to.
RESULT: HIGH

QUERY: Field: class (composite z-score) — entry: COC(=O)[C@@]1(Cc2ccc(OC)cc2)[C@H]2c3cc(C(=O)N4CCCC4)n(Cc4nc5ccccc5[nH]4)c3C[C@H]2CN1C(=O)c1ccccc1
RESULT: MID

QUERY: Bin? CC1CC/C=C\[C@H]2OC34C=CCN(c5ccc6ccccc6c5)C(=O)[C@H]3N(CCO)C(=O)[C@@H]4C2C(=O)O1 (stereo not given in full)
RESULT: LOW

QUERY: Which category fits this record: O=C1NC(=O)C2C1C=CC(C(O)C1CC=CCC1)N2Nc1ccccn1 (stereo not given)
RESULT: LOW

QUERY: Which of the defined bands does the recorded composite z-score of O[C@@H](Cc1ccccc1)[C@@H](/C=C/C1CC1)NCc1cccc(Cl)c1 sit within?
RESULT: LOW
